- Method Notes: In vivo kinetics experiment (radioactivity distribution)
- Parameters: species or system Wistar male rat
- Assay Setup: 30 min after administration; rat i.v.; mean ± SD
- Description: Each of Compounds [^18F] 100, [^18F] 200, [^123I] 400, [^18F] 500, and [^123I] 601 to 610 obtained by the methods described in Examples 2, 4, 7, 9, 11, 13, 15, 17, 19, 21, 23, 25, 27, and 29, or [^123I] […] From the thus sacrificed rat, blood and organs (heart, lung, stomach, liver, spleen, small intestine, large intestine, kidney, bladder (including urine), muscle (lower limbs), brain, adrenal gland, testis, fat, femur, or thyroid gland) were excised, and the weights thereof were then measured. […]
Listed here: items and their measured Adrenal gland/muscle ratio of radioactivity accumulation.
I'd appreciate a reply containing only the number, no unit.

{"columns": ["Compound", "Observed"],
 "data": [
  ["COC(=O)c1cncn1[C@H](C)c1ccc(I)cc1 [[^123I] IMTO, (R)-[^123I]iodometomidate, reference compound]", 97.10],
  ["Fc1cc2nc(-c3cncc(Cn4ccnc4)c3)n(Cc3ccc([123I])cc3)c2cc1Cl [[^123I] 605]", 14.44],
  ["CCn1c(-c2cncc(Cn3ccnc3)c2)nc2ccc([123I])cc21 [[^123I] 608]", 65.62]
]}

Now consider the entry below.
Task: Consider the compound Cn1c(-c2cncc(Cn3ccnc3)c2)nc2ccc([123I])cc21 [[^123I] 607] . State its measured Adrenal gland/muscle ratio of radioactivity accumulation.
Result: 114.11

* * *

- Method Notes: In vivo kinetics experiment (radioactivity distribution)
- Set-up: species or system Wistar male rat
- Assay Setup: rat, caudal vein, 30 min after administration
Short version: Radioactivity distribution Liver at least 4 % ID/g is Criterion met, less is Criterion not met.

Worked examples, 4 compounds total:
{"columns": ["Compound", "Category"],
 "data": [
  ["[123I]c1ccc2nc(-c3cncc(Cn4ccnn4)c3)n(C3CC3)c2c1 [[^123I] 603]", "Criterion not met"],
  ["Fc1cc2nc(-c3cncc(Cn4ccnc4)c3)n(CC[18F])c2cc1Br [[^18F] 200]", "Criterion met"],
  ["[123I]c1ccc2nc(-c3cncc(Cn4ccnc4)c3)n(C3CC3)c2c1 [[^123I] 602]", "Criterion not met"],
  ["Fc1cc2nc(-c3cncc(Cn4ccnc4)c3)n(CC[18F])c2cc1Cl [[^18F] 100]", "Criterion met"]
]}

Task: Evaluate Fc1cc2nc(-c3cncc(Cn4ccnc4)c3)n(CCC[18F])c2cc1Cl [[^18F] 500] : Radioactivity distribution Liver at minimum 4 % ID/g?
Result: Criterion met

Task: Decide: Radioactivity distribution Liver of FCCn1c(-c2cncc(Cn3ccnc3)c2)nc2cc(F)c([123I])cc21 [[^123I] 400] >= 4 % ID/g?
Result: Criterion not met

* * *

- Tested on: human adrenal gland section expressing aldosterone-producing adenoma
- Method Notes: In vitro autoradiography using human adrenal adenoma
- Format: binding
- Assay Setup: section of FIG. 17(a), site 71a
// reported B2 (PSL value, aldosterone-producing adenoma) per item
Answer with a bare number; do not write a unit.

Example entries begin here.
{"columns": ["Compound", "Observed"],
 "data": [
  ["COC(=O)c1cncn1[C@H](C)c1ccc(I)cc1 [[^123I] IMTO, (R)-[^123I]iodometomidate, reference compound]", 7863],
  ["Fc1cc2nc(-c3cncc(Cn4ccnc4)c3)n(CCC[18F])c2cc1Cl [[^18F] 500]", 3619],
  ["FCCn1c(-c2cncc(Cn3ccnc3)c2)nc2cc(F)c([123I])cc21 [[^123I] 400]", 4611]
]}

Task: Input [123I]c1ccc2nc(-c3cncc(Cn4ccnc4)c3)n(C3CC3)c2c1 [[^123I] 602] , output reported B2 (PSL value, aldosterone-producing adenoma).
Result: 6142

Task: Give me measured B2 (PSL value, aldosterone-producing adenoma), please, for this compound: Fc1cc2nc(-c3cncc(Cn4ccnc4)c3)n(CC[18F])c2cc1Cl [[^18F] 100]
Result: 16480

Task: Supply B2 (PSL value, aldosterone-producing adenoma) value. Item: Fc1cc2nc(-c3cncc(Cn4ccnc4)c3)n(CC[18F])c2cc1Br [[^18F] 200]
Result: 4409
